Molecular target: binding of human von Willebrand factor to europium (Eu)-chelate-labeled chimeric GPIb-Fc protein (Homo sapiens, UniProt P04275+P07359)
Sequence (P04275 764-2813 limits assumed, change not shown): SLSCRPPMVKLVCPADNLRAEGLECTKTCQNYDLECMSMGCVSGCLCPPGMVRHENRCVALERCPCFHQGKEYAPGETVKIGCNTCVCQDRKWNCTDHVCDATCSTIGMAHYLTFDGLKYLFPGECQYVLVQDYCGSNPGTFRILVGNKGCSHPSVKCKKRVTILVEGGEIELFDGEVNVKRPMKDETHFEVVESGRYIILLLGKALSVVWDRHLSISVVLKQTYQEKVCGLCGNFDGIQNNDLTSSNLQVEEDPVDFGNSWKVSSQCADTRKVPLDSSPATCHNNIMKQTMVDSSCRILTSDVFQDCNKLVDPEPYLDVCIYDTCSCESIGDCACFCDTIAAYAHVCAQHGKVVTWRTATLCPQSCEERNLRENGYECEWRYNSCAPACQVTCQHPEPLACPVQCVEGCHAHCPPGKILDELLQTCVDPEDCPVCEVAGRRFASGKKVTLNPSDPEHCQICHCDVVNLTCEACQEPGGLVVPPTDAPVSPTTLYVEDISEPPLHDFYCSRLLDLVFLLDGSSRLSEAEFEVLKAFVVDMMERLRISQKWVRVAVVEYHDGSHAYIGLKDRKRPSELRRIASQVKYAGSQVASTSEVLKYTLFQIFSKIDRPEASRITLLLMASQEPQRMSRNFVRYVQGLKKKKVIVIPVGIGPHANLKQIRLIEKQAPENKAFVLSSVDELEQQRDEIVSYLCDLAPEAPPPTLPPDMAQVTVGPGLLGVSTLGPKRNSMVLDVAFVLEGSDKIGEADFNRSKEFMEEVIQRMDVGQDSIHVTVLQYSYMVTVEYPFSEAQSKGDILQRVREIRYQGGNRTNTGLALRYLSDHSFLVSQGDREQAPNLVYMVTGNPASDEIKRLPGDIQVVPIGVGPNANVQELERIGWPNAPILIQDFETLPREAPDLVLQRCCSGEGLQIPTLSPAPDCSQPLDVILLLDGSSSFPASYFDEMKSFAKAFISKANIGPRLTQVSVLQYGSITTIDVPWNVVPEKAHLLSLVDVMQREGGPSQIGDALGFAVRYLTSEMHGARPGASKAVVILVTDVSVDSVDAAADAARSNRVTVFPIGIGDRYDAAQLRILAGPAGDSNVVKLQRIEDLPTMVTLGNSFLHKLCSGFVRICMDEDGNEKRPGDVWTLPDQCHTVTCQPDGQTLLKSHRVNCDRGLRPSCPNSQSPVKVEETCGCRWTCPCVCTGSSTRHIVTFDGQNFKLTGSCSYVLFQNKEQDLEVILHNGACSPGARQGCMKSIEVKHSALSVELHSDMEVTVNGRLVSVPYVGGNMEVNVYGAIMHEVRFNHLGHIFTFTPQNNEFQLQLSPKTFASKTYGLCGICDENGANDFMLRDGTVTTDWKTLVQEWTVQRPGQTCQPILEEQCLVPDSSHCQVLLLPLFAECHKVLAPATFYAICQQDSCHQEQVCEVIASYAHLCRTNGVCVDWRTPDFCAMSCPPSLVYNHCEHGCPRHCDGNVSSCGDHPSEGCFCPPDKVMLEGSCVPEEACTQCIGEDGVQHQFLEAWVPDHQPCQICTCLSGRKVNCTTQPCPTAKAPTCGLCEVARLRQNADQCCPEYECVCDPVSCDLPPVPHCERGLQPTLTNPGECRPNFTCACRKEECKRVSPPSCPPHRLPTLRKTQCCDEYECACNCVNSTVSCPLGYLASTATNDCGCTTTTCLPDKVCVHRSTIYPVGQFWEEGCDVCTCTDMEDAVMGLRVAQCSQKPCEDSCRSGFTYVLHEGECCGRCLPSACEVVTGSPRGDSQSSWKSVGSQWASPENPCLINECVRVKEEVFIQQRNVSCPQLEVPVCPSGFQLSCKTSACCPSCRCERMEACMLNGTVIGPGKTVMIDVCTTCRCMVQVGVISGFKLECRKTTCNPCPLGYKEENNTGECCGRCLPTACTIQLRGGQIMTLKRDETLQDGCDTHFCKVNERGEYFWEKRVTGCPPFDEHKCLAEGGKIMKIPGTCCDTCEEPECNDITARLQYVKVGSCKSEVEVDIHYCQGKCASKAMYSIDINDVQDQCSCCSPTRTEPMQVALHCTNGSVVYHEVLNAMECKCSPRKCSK
Sequence (P07359 17-335 limits assumed, change not shown): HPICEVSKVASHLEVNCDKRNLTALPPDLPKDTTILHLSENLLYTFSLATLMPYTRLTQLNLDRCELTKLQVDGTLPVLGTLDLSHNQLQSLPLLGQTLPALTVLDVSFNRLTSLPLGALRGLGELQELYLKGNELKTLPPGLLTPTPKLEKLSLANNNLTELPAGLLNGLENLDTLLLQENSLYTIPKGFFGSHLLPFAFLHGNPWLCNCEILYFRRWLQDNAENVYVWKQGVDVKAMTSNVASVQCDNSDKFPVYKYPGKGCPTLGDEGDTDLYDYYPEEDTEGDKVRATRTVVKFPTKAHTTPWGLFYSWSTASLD
Assay: Von Willebrand Factor-GPIb Binding Assay (Eu based, botrocetin-induced)
Settings: botrocetin-induced binding of Eu-chelate-labeled chimeric GPIb-Fc to immobilized human vWF; IC50 values as specified in the examples
readout: IC50 (µM)

{"compound": "Cc1cc(N)c2cc(C(=O)NC3CCC(NC(=O)c4ccc5nc(N)ccc5c4)CC3)ccc2n1 (stereo not shown)", "measurement": 28.5}
{"compound": "Cc1cc(N)c2cc(C(=O)Nc3ccc(NC(=O)c4cccc(N(C)C)c4)cc3)ccc2n1", "measurement": 46.5}
{"compound": "Cc1cc(N)c2cc(C(=O)Nc3ccc(NC(=O)c4ccc(N)nc4)cc3)ccc2n1", "measurement": 11.1}
{"compound": "Cc1cc(N)c2cc(NC(=O)c3cccc(Nc4cc(C)[n+](C)c(N)n4)c3)ccc2n1", "measurement": 8.84}

// provenance: patent US7745443B2
